Just for reference, patent US20240400708A1 is where these values come from.

# assayed-target: feline FcRn complex (FcRn-α subunit and β-microglobulin) (feline)
# procedure-text: SPR (Biacore), FcRn on SA chip, pH 7.4
pKd: −log10 of the molar value.
Parameter threshold = 7. Response is condition met when pKd meets or exceeds it, else condition not met.

See these solved cases before continuing.
| binder | label |
| --- | --- |
| feline IgG1a mutant ID No. 273: S252R, S434F, Q311W (antibody, part only; not given: Variable domains, not shown: another chain or arm of the molecule) constant: ASTTAPSVFPLAPSCGTTSGATVALACLVLGYFPEPVTVSWNSGALTSGVHTFPAVLQASGLYSLSSMVTVPSSRWLSDTFTCNVAHPPSNTKVDKTVRKTDHPPGPKPCDCPKCPPPEMLGGPSIFIFPPKPKDTLRISRTPEVTCLVVDLGPDDSDVQITWFVDNTQVYTAKTSPREEQFNSTYRVVSVLPILHWDWLKGKEFKCKVNSKSLPSPIERTISKAKGQPHEPQVYVLPPAQEELSRNKVSVTCLIKSFHPPDIAVEWEITGQPEPENNYRTTPPQLDSDGTYFVYSKLSVDRSHWQRGNTYTCSVSHEALHFHHTQKSLTQSPGK | condition not met |
| feline IgG1a mutant ID No. 355: S252Y, S428M, S434F, T256M (antibody, part only; not given: variable domains and light chain, not shown: another chain or arm of the molecule) constant: ASTTAPSVFPLAPSCGTTSGATVALACLVLGYFPEPVTVSWNSGALTSGVHTFPAVLQASGLYSLSSMVTVPSSRWLSDTFTCNVAHPPSNTKVDKTVRKTDHPPGPKPCDCPKCPPPEMLGGPSIFIFPPKPKDTLYISRMPEVTCLVVDLGPDDSDVQITWFVDNTQVYTAKTSPREEQFNSTYRVVSVLPILHQDWLKGKEFKCKVNSKSLPSPIERTISKAKGQPHEPQVYVLPPAQEELSRNKVSVTCLIKSFHPPDIAVEWEITGQPEPENNYRTTPPQLDSDGTYFVYSKLSVDRSHWQRGNTYTCSVMHEALHFHHTQKSLTQSPGK | condition met |
| feline IgG1a mutant ID No. 318: S428M, A431K, S434Y (antibody, part only; not given: Variable domains, not shown: another chain or arm of the molecule) constant: ASTTAPSVFPLAPSCGTTSGATVALACLVLGYFPEPVTVSWNSGALTSGVHTFPAVLQASGLYSLSSMVTVPSSRWLSDTFTCNVAHPPSNTKVDKTVRKTDHPPGPKPCDCPKCPPPEMLGGPSIFIFPPKPKDTLSISRTPEVTCLVVDLGPDDSDVQITWFVDNTQVYTAKTSPREEQFNSTYRVVSVLPILHQDWLKGKEFKCKVNSKSLPSPIERTISKAKGQPHEPQVYVLPPAQEELSRNKVSVTCLIKSFHPPDIAVEWEITGQPEPENNYRTTPPQLDSDGTYFVYSKLSVDRSHWQRGNTYTCSVMHEKLHYHHTQKSLTQSPGK | condition met |
| feline IgG1a mutant ID No. 295: S252Y, S428Y, Q311W, L314K, S434Y (antibody, part only; not given: Variable domains, not shown: another chain or arm of the molecule; small tags and cut ends) constant: ASTTAPSVFPLAPSCGTTSGATVALACLVLGYFPEPVTVSWNSGALTSGVHTFPAVLQASGLYSLSSMVTVPSSRWLSDTFTCNVAHPPSNTKVDKTVRKTDHPPGPKPCDCPKCPPPEMLGGPSIFIFPPKPKDTLYISRTPEVTCLVVDLGPDDSDVQITWFVDNTQVYTAKTSPREEQFNSTYRVVSVLPILHWDWKKGKEFKCKVNSKSLPSPIERTISKAKGQPHEPQVYVLPPAQEELSRNKVSVTCLIKSFHPPDIAVEWEITGQPEPENNYRTTPPQLDSDGTYFVYSKLSVDRSHWQRGNTYTCSVYHEALHYHHTQKSLTQSPGK | condition not met |
| feline IgG1a mutant ID No. 277: S252R, S434W (antibody, part only; not given: Variable domains, not shown: another chain or arm of the molecule) constant: ASTTAPSVFPLAPSCGTTSGATVALACLVLGYFPEPVTVSWNSGALTSGVHTFPAVLQASGLYSLSSMVTVPSSRWLSDTFTCNVAHPPSNTKVDKTVRKTDHPPGPKPCDCPKCPPPEMLGGPSIFIFPPKPKDTLRISRTPEVTCLVVDLGPDDSDVQITWFVDNTQVYTAKTSPREEQFNSTYRVVSVLPILHQDWLKGKEFKCKVNSKSLPSPIERTISKAKGQPHEPQVYVLPPAQEELSRNKVSVTCLIKSFHPPDIAVEWEITGQPEPENNYRTTPPQLDSDGTYFVYSKLSVDRSHWQRGNTYTCSVSHEALHWHHTQKSLTQSPGK | condition not met |
| feline IgG1a mutant ID No. 294: S252Y, S428Y, Q311W, L314K (antibody, part only; not given: variable domains and light chain, not shown: another chain or arm of the molecule; small tags and cut ends) constant: ASTTAPSVFPLAPSCGTTSGATVALACLVLGYFPEPVTVSWNSGALTSGVHTFPAVLQASGLYSLSSMVTVPSSRWLSDTFTCNVAHPPSNTKVDKTVRKTDHPPGPKPCDCPKCPPPEMLGGPSIFIFPPKPKDTLYISRTPEVTCLVVDLGPDDSDVQITWFVDNTQVYTAKTSPREEQFNSTYRVVSVLPILHWDWKKGKEFKCKVNSKSLPSPIERTISKAKGQPHEPQVYVLPPAQEELSRNKVSVTCLIKSFHPPDIAVEWEITGQPEPENNYRTTPPQLDSDGTYFVYSKLSVDRSHWQRGNTYTCSVYHEALHSHHTQKSLTQSPGK | condition met |

Problem: Evaluate feline IgG1a mutant ID No. 362: S252Y, S434R, D399M (antibody, part only; not given: Variable domains, not shown: another chain or arm of the molecule) constant: ASTTAPSVFPLAPSCGTTSGATVALACLVLGYFPEPVTVSWNSGALTSGVHTFPAVLQASGLYSLSSMVTVPSSRWLSDTFTCNVAHPPSNTKVDKTVRKTDHPPGPKPCDCPKCPPPEMLGGPSIFIFPPKPKDTLYISRTPEVTCLVVDLGPDDSDVQITWFVDNTQVYTAKTSPREEQFNSTYRVVSVLPILHQDWLKGKEFKCKVNSKSLPSPIERTISKAKGQPHEPQVYVLPPAQEELSRNKVSVTCLIKSFHPPDIAVEWEITGQPEPENNYRTTPPQLMSDGTYFVYSKLSVDRSHWQRGNTYTCSVSHEALHRHHTQKSLTQSPGK : pKd at minimum 7?
Result: condition met
